# procedure summary: Screening pharmacokinetic study, plasma and brain (LC-MS/MS)
# Type: in vivo, mice (C57BL6/J)
# particulars: male, C57BL6/J, mouse; mice, intravenous route, group 1-2 mg/kg (Compound 4, 8: 1.00; 7: 1.20; 10: 2.00 mg/Kg), brain
measured quantity: half-life (min)

CSc1cc(/C=N/O)nc2c1ccc1cccnc12 :: 23.4

I. COCCOc1cc(/C=N/O)nc2c1ccc1cccnc12
II. CCN(CC)CCOc1cc(/C=N/O)nc2c1ccc1cccnc12
Pick one, I or II : lowest reported half-life. Write the label of whichever entry you select. I
(I: 10.8 min, II: 156 min)

* * *

# procedure summary: Screening pharmacokinetic study, plasma and brain (LC-MS/MS)
# Format: in vivo, mice (C57BL6/J)
# particulars: male, C57BL6/J, mouse; mice, 20 mg/kg oral route, brain
measured quantity: Tmax (min)

Solved cases below.
CSc1cc(/C=N/O)nc2c1ccc1cccnc12 :: 15
COCCOc1cc(/C=N/O)nc2c1ccc1cccnc12 :: 15

a. CC(C)Sc1cc(/C=N/O)nc2c1ccc1cccnc12
b. CCN(CC)CCOc1cc(/C=N/O)nc2c1ccc1cccnc12
Pick one, a or b : lowest reported Tmax. Write the label of whichever entry you select. b
(b: 60 min, a: 240 min)
